Tested on: Fe (II)-induced microsomal lipid peroxidation (rat liver microsomes)
Method: Inhibition of Fe (II)-induced microsomal lipid peroxidation
Format: biochemical
Protocol conditions: TBARS, purified compounds screened at 26.750 μg/mL, extract (HT) at 100 μg/mL
Hi there, I'd appreciate the recorded Inhibitory Activitis (IC50) Lipid Peroxidation for every entry that follows.

// query Entry CC(C)=CCOc1cc(O)c(C(=O)/C=C/c2ccccc2)c2c1C=CC(C)(C)O2 [Compound 1] has what Inhibitory Activitis (IC50) Lipid Peroxidation?
// result >26.750 µg/mL

// query What Inhibitory Activitis (IC50) Lipid Peroxidation value was documented for this compound, CC(C)=CCc1c(O)cc2c(c1O)C(=O)C[C@@H](c1ccccc1)O2 [Compound 4, isoglabranin] ?
// result >26.750 µg/mL

// query What does the data say about its Inhibitory Activitis (IC50) Lipid Peroxidation? Entry: CC(C)=CCc1c(O)cc(O)c2c1O[C@H](c1ccccc1)CC2=O [Compound 5, glabranin]
// result >26.750 µg/mL
